Catalogue of variants with associated self-cleavage
B1: LINE1-full (parent)
chain: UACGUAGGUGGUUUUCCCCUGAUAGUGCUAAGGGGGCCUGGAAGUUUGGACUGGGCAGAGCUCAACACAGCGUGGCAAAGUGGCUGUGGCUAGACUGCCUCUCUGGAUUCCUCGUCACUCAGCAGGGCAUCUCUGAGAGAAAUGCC

Variants of: B1
Test: self-cleavage, relative activity (ratio to wild type); higher = more cleavage; in vitro, sequencing; the parent is a self-cleaving ribozyme
readout kind: self-cleavage

>>> value("U9G C146U")
1.29
>>> value("U5C A78U")
1.9
>>> value("G34U U39A")
1.89
>>> value("U81C U130C")
1.88
>>> value("G44A U62C")
0.02
>>> value("A6U U119A")
1.74
>>> value("U9C A124C")
2.53
>>> value("U15A A141U")
1.07
>>> value("U5G U132C")
1.04
>>> value("A6G G127A")
0.46
>>> value("A42G A64G")
0.28
>>> value("A79G U109C")
1.26
>>> value("A124U G127U")
1.62
